TARGET ENTITY: ligand binding domain of human ROR gamma (Homo sapiens)
Construct: NM_001001523; expressed in transfected cells; host or cells: HEK293T
Sequence (P51449 268-518): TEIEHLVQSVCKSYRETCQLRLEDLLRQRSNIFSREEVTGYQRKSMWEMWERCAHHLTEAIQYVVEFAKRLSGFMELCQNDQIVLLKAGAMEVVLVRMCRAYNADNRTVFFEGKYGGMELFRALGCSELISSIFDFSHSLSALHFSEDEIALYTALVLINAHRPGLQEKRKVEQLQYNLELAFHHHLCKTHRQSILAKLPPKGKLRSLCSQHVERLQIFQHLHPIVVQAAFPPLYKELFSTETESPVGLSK
EXPERIMENT SUMMARY: ROR gamma reporter gene assay (GAL4-RORγ LBD luciferase, Dual-Glo)
Format: cell-based
CONDITION: HEK293T cells transfected with pM-ROR gamma, 8 concentrations 3.5 nM to 10.5 μM, 24 h incubation; read-out: result (pIC50, inhibition of RORγ transcriptional activity) (converted)
What IC50 was measured for each of the following?
State just the number; it will be interpreted in pM.

Tell me its IC50 given CC1(CN(CC(=O)c2c(Cl)cncc2Cl)C(=O)c2cnn([C@H]3CC[C@H](C(=O)O)CC3)c2C(F)(F)F)CC1 [Example 31] as the entry. 77600

Tell me its IC50 given Cc1cc(Cl)c(C(=O)CN(C(=O)c2cnn(C34CCC(C(=O)O)(CC3)CC4)c2C(F)(F)F)C2CCC(C)(C)CC2)c(Cl)c1 [Example 236] as the entry. 10500

Tell me its IC50 given CC12CCC(CN(CC(=O)c3c(Cl)cc(F)cc3Cl)C(=O)c3cnn([C@H]4CC[C@](C)(C(=O)O)CC4)c3C(F)(F)F)(CC1)O2 [Example 244] as the entry. 6920

Tell me its IC50 given CC(C)[C@H]1C[C@@H]1N(CC(=O)c1c(Cl)cncc1Cl)C(=O)c1cnn([C@H]2CC[C@](C)(C(=O)O)CC2)c1C(F)(F)F [Example 346] as the entry. 110000
